Collected pEC50 values appear next to each entry.
# TARGET_ENTITY: human ALX receptor (Homo sapiens, UniProt P25090)
# METHOD: Intracellular calcium measurements (FLIPR), agonistic activity in HEK293-hALXR-Gα16 cells
# TEST_PARAMETERS: Fluo-4 calcium FLIPR, normalized to WKYMVm 10 nM
# Protocol: The ALX receptor and FPRL2 agonistic activities of the compounds of formula (I) are determined in accordance with the following experimental method. Intracellular Calcium Measurements: Cells expressing recombinant human ALX receptor and the G-protein Gα16 (HEK293-hALXR-Gα16) were grown to 80% confluency in Growing Medium (GM). […] Changes in fluorescence were monitored before and after the addition of test compounds at lex=488 nm and lem=540 nm. […]
Scale: pEC50 equals -log10([C]), with [C] in mol/L.

Field: example entries. Status: answers known.
O=C(NCCCc1nc2ccccc2[nH]1)[C@H]1[C@H](C(=O)NCc2ccc(Br)cc2)[C@@H]2C=C[C@H]1C21CC1 (racemic); 6.67
CC(C)(C)c1csc(NC(=O)[C@H]2[C@H](C(=O)NCCCCN3CCCC3)[C@H]3C=C[C@@H]2C32CC2)n1 (racemic); 5.02
CC(C)(CN)CNC(=O)[C@H]1[C@H](C(=O)Nc2ncc(Br)s2)[C@@H]2C=C[C@H]1C21CC1 (racemic); 7.92
O=C(NCCCCN1CCCC1)[C@H]1[C@H](C(=O)NCc2ccco2)[C@@H]2C=C[C@H]1C21CC1 (racemic); 6.76
COC(=O)CCNC(=O)[C@H]1[C@H](C(=O)NCCCCN2CCCC2)[C@H]2C=C[C@@H]1C21CC1 (racemic); 7.28

Now examine the next entry.
[in] pEC50 for CC(=O)c1cccc(CNC(=O)[C@H]2[C@H](C(=O)NCCCCN3CCCC3)[C@H]3C=C[C@@H]2C32CC2)c1 (racemic) ?
[out] 5.08

---

# TARGET_ENTITY: human ALX receptor (Homo sapiens)
# Sequence (P25090 1-351): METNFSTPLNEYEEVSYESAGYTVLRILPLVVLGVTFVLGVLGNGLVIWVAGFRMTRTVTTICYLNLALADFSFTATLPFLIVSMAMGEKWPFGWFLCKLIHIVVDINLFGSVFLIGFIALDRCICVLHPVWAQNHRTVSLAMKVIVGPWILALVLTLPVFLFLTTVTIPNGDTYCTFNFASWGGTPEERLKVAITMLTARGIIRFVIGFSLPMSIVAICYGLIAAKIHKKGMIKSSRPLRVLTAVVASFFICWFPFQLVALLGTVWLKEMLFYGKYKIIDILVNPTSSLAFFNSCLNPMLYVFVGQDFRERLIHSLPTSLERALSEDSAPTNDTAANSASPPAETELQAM
# METHOD: Intracellular calcium measurements (FLIPR), agonistic activity in HEK293-hALXR-Gα16 cells
# TEST_PARAMETERS: Fluo-4 calcium FLIPR, normalized to WKYMVm 10 nM
ASSAY_METRIC: pEC50
Scale: pEC50 equals -log10([C]), with [C] in mol/L.

CC(NC(=O)C1C(C(=O)Nc2ccc(Br)cc2)C2C=CC1C21CC1)C(N)=O (mixture of isomers) [Example 65]; 7.59
NS(=O)(=O)c1ccc(CCNC(=O)[C@H]2[C@H](C(=O)Nc3ccc(Br)cc3)[C@@H]3C=C[C@H]2C32CC2)cc1 (racemic) [Example 61]; 7.64
O=C(NCC1COCCO1)C1C(C(=O)Nc2ccc(Br)cc2)C2C=CC1C21CC1 (mixture of isomers) [Example 41]; 8.02
CC(=O)c1cnc(CNC(=O)[C@H]2[C@H](C(=O)NCCCCN3CCCC3)[C@H]3C=C[C@@H]2C32CC2)s1 (racemic) [Example 351]; 5.20
COCCC(=O)N(C)C[C@H]1[C@H](C(=O)Nc2ccc(Br)cc2)[C@@H]2C=C[C@H]1C21CC1 (racemic) [Example 175]; 6.81

Now examine the next entry.
[in] pEC50 for O=C(NCC1CCCO1)C1C(C(=O)Nc2ccc(Br)cc2)C2CCC1C21CC1 (mixture of isomers) [Example 104] ?
[out] 8.82
